Where do these numbers come from? They come from ChEMBL document CHEMBL4689842.

System: HEK-293T
Assay text: Multiplex assay against HEK293T
Assay type: toxicity, cell-based
Condition summary: human, 24 h, 10 µM, compound concentration 10 uM, replicate 2
Hi! Could you tag entries with Population Membrane Permeable-Phenotype (%) below 7% as TRUE, and those at or above as FALSE? Much appreciated.

>>> assigned_class("CC(C)OC(=O)N1CCC(Oc2ncnc3c2cnn3-c2ccc(S(C)(=O)=O)cc2F)CC1")
"TRUE"
>>> assigned_class("CC(C)c1noc(N2CCC(COc3ccc(-c4ccc(S(C)(=O)=O)cc4)nc3)CC2)n1")
"TRUE"
>>> assigned_class("C[C@]12CC[C@@H]3c4ccc(O)cc4CC[C@H]3[C@@H]1CC[C@@H]2O")
"FALSE"
>>> assigned_class("O=C(c1cc2c(cc1F)OC(c1ccc(F)cc1)(c1ccc(Cl)cc1Cl)O2)N1CCOCC1 (configuration not stated)")
"FALSE"
>>> assigned_class("Cc1cccc(CN2CCN(C(c3ccccc3)c3ccc(Cl)cc3)CC2)c1.Cl.Cl (configuration not stated)")
"TRUE"
>>> assigned_class("CC(C)CC(=O)Nc1[nH]nc2c1CN(C(=O)C1CCN(C)CC1)C2(C)C")
"TRUE"
>>> assigned_class("CC1=C(C(=O)Nc2cc3cn[nH]c3cc2F)C(c2ccc(C(F)(F)F)cc2)CC(=O)N1 (configuration not stated)")
"FALSE"
>>> assigned_class("Cc1nc(N2CC[C@H](O)C2)ncc1-c1cc(C(F)(F)F)cc2[nH]ncc12")
"TRUE"
>>> assigned_class("COc1cc2ncn(-c3cc(OCc4ccccc4C(F)(F)F)c(C(N)=O)s3)c2cc1OC [GW843682X]")
"TRUE"
>>> assigned_class("C=CC(=O)Nc1ccc2[nH]c(=O)n(C3CCN(Cc4ccc(-c5nc6cc[nH]c(=O)c6cc5-c5ccccc5)cc4)CC3)c2c1")
"FALSE"
>>> assigned_class("O=c1[nH]c2ccccc2n1C1CCN(Cc2ccc(-c3[nH]c4cc5ncnc5cc4nc3-c3ccccc3)cc2)CC1")
"TRUE"
>>> assigned_class("CCc1nn(CCCN2CCN(c3cccc(Cl)c3)CC2)c(=O)n1CCOc1ccccc1.Cl [NEFAZODONE HYDROCHLORIDE]")
"TRUE"
>>> assigned_class("Cc1c[nH]c2nccc(Oc3c(F)cc(Nc4cc(Cl)nc(N)n4)cc3F)c12")
"TRUE"
>>> assigned_class("COc1ccccc1CN[C@H]1C2CCN(CC2)[C@H]1C(c1ccccc1)c1ccccc1")
"TRUE"
